# Test system: Bacillus anthracis Sterne 34F2
# TEST NAME: microbe, parasite or virus in culture
# Type: cell-based
# MEASUREMENT PARAMETERS: STERNE34F2, read-out: MIC, BA
TEST READOUT: MIC (µg/mL)

> print(dat)
                                    compound  qualifier.symbol  value.reported
 1  N#CC1=C(O)[C@H](Cc2ccccc2)N(Cc2ccccc2)C1=O [Compound 12c]                 >             200
 2  C/C(O)=C1\C(=O)[C@H](CC(C)C)N(Cc2ccc(-c3ccccc3)cc2)C1=O [Compound 13k]                 =             0.4
 3  CCCCN1C(=O)/C(=C(/C)O)C(=O)[C@@H]1CC(C)C [Compound 13j]                 =            12.5
 4  CC(C)C[C@H]1C(O)=C(C#N)C(=O)N1Cc1ccc(F)cc1 [Compound 12e]                 >             200
 5  C/C(O)=C1\C(=O)[C@H](CC(C)C)N(CC2=CCC3CC2C3(C)C)C1=O (some centres unmarked) [Compound 13l]                 =             0.8
 6  CCCCCCCCCCN1C(=O)/C(=C(/C)O)C(=O)[C@@H]1C(C)C [Compound 13i]                 =             0.8
 7  CCCCCCCCCCN1C(=O)/C(=C(/C)O)C(=O)[C@@H]1Cc1ccccc1 [Compound 13n]                 =             0.2
 8  COc1cccc(CN2C(=O)C(C#N)=C(O)[C@@H]2CC(C)C)c1 [Compound 12d]                 >             200
 9  C/C(O)=C1\C(=O)[C@@H](Cc2ccccc2)N(Cc2ccccc2)C1=O [Compound 13g]                 =              25
10  CCCCCCCCCCN1C(=O)C(C#N)=C(O)[C@@H]1CC(C)C [Compound 12b]                 =              25
11  CC(C)=CCCC(C)CCN1C(=O)/C(=C(/C)O)C(=O)[C@@H]1CC(C)C (some centres unmarked) [Compound 13m]                 =             0.4
12  C/C(O)=C1\C(=O)[C@@H](CC(C)C)N(Cc2ccc(F)cc2)C1=O [Compound 13f]                 =            12.5
13  C/C(O)=C1\C(=O)[C@H](CC(C)C)N(Cc2ccc(F)cc2)C1=O [Compound 13e]                 =            12.5
14  COc1cccc(CN2C(=O)/C(=C(/C)O)C(=O)[C@@H]2CC(C)C)c1 [Compound 13d]                 =              25
15  N#CC1=C(O)[C@@H](Cc2ccccc2)N(Cc2ccccc2)C1=O [Compound 12g]                 >             200
16  CCN1C(=O)/C(=C(/C)O)C(=O)[C@@H]1Cc1ccccc1 [Compound 13h]                 =              50
17  CC(C)C[C@@H]1C(O)=C(C#N)C(=O)N1Cc1ccc(F)cc1 [Compound 12f]                 >             200
18  C/C(O)=C1\C(=O)[C@H](Cc2ccccc2)N(Cc2ccccc2)C1=O [Compound 13c]                 =              25
19  CCC(C)[C@H]1C(O)=C(C#N)C(=O)N1Cc1ccco1 (some centres unmarked) [Compound 12p]                 =            3.12
20  CCCCCCCCCCN1C(=O)/C(=C(/C)O)C(=O)[C@@H]1CC(C)C [Compound 13b]                 =             0.8
21  CCCCCCCCCCN1C(=O)/C(=C(/C)O)C(=O)[C@H]1CC(C)C [Compound 13o]                 =             0.8
22  CCC(C)[C@H]1C(O)=C(C#N)C(=O)N1Cc1ccccc1 (some centres unmarked) [Compound 12a]                 >             200
23  CCC(C)[C@H]1C(=O)/C(=C(\C)O)C(=O)N1Cc1ccccc1 (some centres unmarked) [Compound 13a]                 =            3.12
